# tested.on: human cloned 5-HT6 receptors (Homo sapiens, UniProt P50406)
# Sequence (P50406 whole entry): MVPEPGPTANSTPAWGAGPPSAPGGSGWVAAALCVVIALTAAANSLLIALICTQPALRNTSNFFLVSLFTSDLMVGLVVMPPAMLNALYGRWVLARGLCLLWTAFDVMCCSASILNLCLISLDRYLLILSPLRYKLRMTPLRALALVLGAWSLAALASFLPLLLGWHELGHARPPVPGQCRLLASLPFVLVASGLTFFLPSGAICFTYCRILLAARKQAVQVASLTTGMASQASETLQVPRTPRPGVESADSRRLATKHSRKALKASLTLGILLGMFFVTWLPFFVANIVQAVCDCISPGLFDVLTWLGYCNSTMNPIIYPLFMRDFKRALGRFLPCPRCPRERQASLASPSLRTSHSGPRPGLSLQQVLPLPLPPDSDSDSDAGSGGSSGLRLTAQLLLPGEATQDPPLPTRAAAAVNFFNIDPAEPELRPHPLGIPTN
reported.property: Ki (µM)

> print(dat)
                                chem.smiles  units.symbol  value.observed
1  NCCn1c(=O)n(S(=O)(=O)c2cccc(Cl)c2Cl)c2cccnc21            µM           0.009
2  NCCn1c(=O)n(S(=O)(=O)c2ccc(Br)s2)c2cccnc21            µM           0.009
3  NCCn1c(=O)n(S(=O)(=O)c2ccc(Cl)cc2)c2cccnc21            µM           0.017

P. NCCn1c(=O)n(S(=O)(=O)c2c(Cl)nc3sccn23)c2cccnc21
Q. NCCn1c(=O)n(S(=O)(=O)c2cccc(Br)c2)c2cccnc21
R. NCCn1c(=O)n(S(=O)(=O)c2ccccc2F)c2cccnc21
q: Task for the reader: rank each entry by its Ki, from the minimum upward. Lab note: record answer as labels in requested order.
a: P, Q, R
